# System: Triton WR1339 (tyloxapol) induced hyperlipidemia
# Protocol Text: Triton WR1339 (tyloxapol) induced hyperlipidemia: plasma TC, TG, LDL-C
# Assay type: in vivo
# Measurement Context: ip; rat plasma, dose i.p. 150 µmol/kg, 24 h, tyloxapol 200 mg/kg i.p.; read-out: % Reduction TG (triglycerides)
Let's look at some compounds and their measured inhibition in vivo at 150 µmol/kg.
Measured Quantity: inhibition in vivo at 150 µmol/kg (%)

>  <Compound>
Cc1c(C)c2c(c(C)c1O)CCC(C)(C(=O)OC1N=C(c3ccccc3Cl)c3cc(Cl)ccc3NC1=O)O2 (stereo not shown)

>  <Measured Quantity>
inhibition in vivo at 150 µmol/kg

>  <Result Value>
64

$$$$
>  <Compound>
O=C(CCCCC1CCSS1)OC1N=C(c2ccccc2Cl)c2cc(Cl)ccc2NC1=O (stereo not shown)

>  <Measured Quantity>
inhibition in vivo at 150 µmol/kg

>  <Result Value>
41

$$$$
>  <Compound>
CC(C)(C)c1cc(C=CC(=O)OC2N=C(c3ccccc3Cl)c3cc(Cl)ccc3NC2=O)cc(C(C)(C)C)c1O (stereo not shown)

>  <Measured Quantity>
inhibition in vivo at 150 µmol/kg

>  <Result Value>
66

$$$$
>  <Compound>
CC(C)Cc1ccc(C(C)C(=O)OC2N=C(c3ccccc3Cl)c3cc(Cl)ccc3NC2=O)cc1 (stereo not shown)

>  <Measured Quantity>
inhibition in vivo at 150 µmol/kg

>  <Result Value>
65

$$$$

---

# Target Or System: soybean lipoxygenase-1 (Glycine max, UniProt P08170)
# Sequence (P08170 1-839): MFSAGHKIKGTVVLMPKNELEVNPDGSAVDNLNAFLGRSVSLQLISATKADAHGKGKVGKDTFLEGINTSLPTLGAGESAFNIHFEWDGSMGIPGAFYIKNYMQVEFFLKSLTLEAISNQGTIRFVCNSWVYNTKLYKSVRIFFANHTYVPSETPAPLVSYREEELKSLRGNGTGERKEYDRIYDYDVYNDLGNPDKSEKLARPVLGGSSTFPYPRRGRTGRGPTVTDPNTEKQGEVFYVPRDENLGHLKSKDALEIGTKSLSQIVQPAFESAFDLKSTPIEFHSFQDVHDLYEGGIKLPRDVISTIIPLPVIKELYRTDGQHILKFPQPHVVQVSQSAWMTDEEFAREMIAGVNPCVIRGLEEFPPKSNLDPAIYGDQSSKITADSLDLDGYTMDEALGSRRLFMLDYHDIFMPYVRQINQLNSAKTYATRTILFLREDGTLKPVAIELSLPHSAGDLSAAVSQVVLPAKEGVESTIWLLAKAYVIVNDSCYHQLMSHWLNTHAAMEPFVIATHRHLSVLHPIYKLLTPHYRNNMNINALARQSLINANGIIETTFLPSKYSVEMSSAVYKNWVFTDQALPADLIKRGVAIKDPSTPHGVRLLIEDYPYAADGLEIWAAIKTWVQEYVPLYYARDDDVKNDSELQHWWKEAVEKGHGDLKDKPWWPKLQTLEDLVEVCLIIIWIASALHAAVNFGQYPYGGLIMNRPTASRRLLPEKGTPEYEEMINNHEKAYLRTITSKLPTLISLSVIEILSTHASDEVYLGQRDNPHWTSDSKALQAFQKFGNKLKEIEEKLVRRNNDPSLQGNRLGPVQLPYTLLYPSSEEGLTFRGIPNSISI
# Protocol Text: Inhibition of soybean lipoxygenase
# Assay type: biochemical
# Measurement Context: sodium linoleate 0.1 mM, 7 min incubation; read-out: Lipoxygenase IC50
pIC50: −log10 of the molar value.

>  <Compound>
CC(C(=O)OC1N=C(c2ccccc2Cl)c2cc(Cl)ccc2NC1=O)c1cccc(C(=O)c2ccccc2)c1 (stereo not shown)

>  <Comparison Operator>
=

>  <pIC50>
4.08

$$$$
>  <Compound>
Cc1cc(C(C)(C)C)c(O)c(C(C)(C)C)c1

>  <Comparison Operator>
=

>  <pIC50>
3.72

$$$$
>  <Compound>
CC(C)(C)c1cc(C=CC(=O)OC2N=C(c3ccccc3Cl)c3cc(Cl)ccc3NC2=O)cc(C(C)(C)C)c1O (stereo not shown)

>  <Comparison Operator>
=

>  <pIC50>
4.36

$$$$
>  <Compound>
Cc1c(C)c2c(c(C)c1O)CCC(C)(C(=O)O)O2 (stereo not shown) [Trolox, reference compound]

>  <Comparison Operator>
<

>  <pIC50>
3.52

$$$$
>  <Compound>
CC(C)(C)c1cc(/C=C/C(=O)O)cc(C(C)(C)C)c1O [BHA, reference compound]

>  <Comparison Operator>
<

>  <pIC50>
3.52

$$$$
>  <Compound>
COc1ccc2c(c1)c(CC(=O)OC1N=C(c3ccccc3Cl)c3cc(Cl)ccc3NC1=O)c(C)n2C(=O)c1ccc(Cl)cc1 (stereo not shown)

>  <Comparison Operator>
=

>  <pIC50>
4.07

$$$$
>  <Compound>
Cc1c(Cl)cccc1Nc1ccccc1C(=O)O [Tolfenamic acid, reference compound]

>  <Comparison Operator>
=

>  <pIC50>
3.77

$$$$

---

The reader will find reported inhibition in vivo at 150 µmol/kg values listed item by item below.
# Test system: carrageenan-induced rat paw oedema
# Protocol Text: Carrageenan-induced rat paw oedema
# Assay type: in vivo
# Measurement Context: ip, i.p. 0.15 mmol/kg, 3.5 h post administration, vs controls, read-out: % Oedema Reduction

>  <Molecule>
COc1ccc2cc(C(C)C(=O)OC3N=C(c4ccccc4Cl)c4cc(Cl)ccc4NC3=O)ccc2c1 (stereo not shown)

>  <inhibition in vivo at 150 µmol/kg [%]>
46

$$$$
>  <Molecule>
CC(C)(C)c1cc(C=CC(=O)OC2N=C(c3ccccc3Cl)c3cc(Cl)ccc3NC2=O)cc(C(C)(C)C)c1O (stereo not shown)

>  <inhibition in vivo at 150 µmol/kg [%]>
37

$$$$
>  <Molecule>
Cc1c(Cl)cccc1Nc1ccccc1C(=O)OC1N=C(c2ccccc2Cl)c2cc(Cl)ccc2NC1=O (stereo not shown)

>  <inhibition in vivo at 150 µmol/kg [%]>
55

$$$$
>  <Molecule>
O=C(Cc1c[nH]c2ccccc12)OC1N=C(c2ccccc2Cl)c2cc(Cl)ccc2NC1=O (stereo not shown)

>  <inhibition in vivo at 150 µmol/kg [%]>
43

$$$$

---

# Test system: Triton WR1339 (tyloxapol) induced hyperlipidemia
# Protocol Text: Triton WR1339 (tyloxapol) induced hyperlipidemia: plasma TC, TG, LDL-C
# Assay type: in vivo
# Measurement Context: ip; rat plasma, dose i.p. 50 µmol/kg, 24 h, tyloxapol 200 mg/kg i.p.; read-out: % Reduction TC (total cholesterol)
Listing of entries alongside the reported inhibition in vivo at 50 µmol/kg.

>  <Compound>
CC(C)(C)c1cc(C=CC(=O)OC2N=C(c3ccccc3Cl)c3cc(Cl)ccc3NC2=O)cc(C(C)(C)C)c1O (stereo not drawn)

>  <Unit Of Measurement>
%

>  <inhibition in vivo at 50 µmol/kg>
59

$$$$
>  <Compound>
Cc1c(Cl)cccc1Nc1ccccc1C(=O)OC1N=C(c2ccccc2Cl)c2cc(Cl)ccc2NC1=O (stereo not drawn)

>  <Unit Of Measurement>
%

>  <inhibition in vivo at 50 µmol/kg>
56

$$$$
>  <Compound>
COc1ccc2c(c1)c(CC(=O)OC1N=C(c3ccccc3Cl)c3cc(Cl)ccc3NC1=O)c(C)n2C(=O)c1ccc(Cl)cc1 (stereo not drawn)

>  <Unit Of Measurement>
%

>  <inhibition in vivo at 50 µmol/kg>
59

$$$$
>  <Compound>
O=C(CCCCC1CCSS1)OC1N=C(c2ccccc2Cl)c2cc(Cl)ccc2NC1=O (stereo not drawn)

>  <Unit Of Measurement>
%

>  <inhibition in vivo at 50 µmol/kg>
48

$$$$
>  <Compound>
CC(C)Cc1ccc(C(C)C(=O)OC2N=C(c3ccccc3Cl)c3cc(Cl)ccc3NC2=O)cc1 (stereo not drawn)

>  <Unit Of Measurement>
%

>  <inhibition in vivo at 50 µmol/kg>
44

$$$$
>  <Compound>
COc1ccc2cc(C(C)C(=O)OC3N=C(c4ccccc4Cl)c4cc(Cl)ccc4NC3=O)ccc2c1 (stereo not drawn)

>  <Unit Of Measurement>
%

>  <inhibition in vivo at 50 µmol/kg>
60

$$$$

---

# Test system: Triton WR1339 (tyloxapol) induced hyperlipidemia
# Protocol Text: Triton WR1339 (tyloxapol) induced hyperlipidemia: plasma TC, TG, LDL-C
# Type: in vivo
# Measurement Context: ip; rat plasma, dose i.p. 150 µmol/kg, 24 h, tyloxapol 200 mg/kg i.p.; read-out: % Reduction TC (total cholesterol)
Measured Quantity: inhibition in vivo at 150 µmol/kg

>  <Molecule>
CC(C)Cc1ccc(C(C)C(=O)OC2N=C(c3ccccc3Cl)c3cc(Cl)ccc3NC2=O)cc1 (stereo not shown)

>  <Result Value>
82%

$$$$
>  <Molecule>
O=C(CCCCC1CCSS1)OC1N=C(c2ccccc2Cl)c2cc(Cl)ccc2NC1=O (stereo not shown)

>  <Result Value>
82%

$$$$
>  <Molecule>
Cc1c(C)c2c(c(C)c1O)CCC(C)(C(=O)OC1N=C(c3ccccc3Cl)c3cc(Cl)ccc3NC1=O)O2 (stereo not shown)

>  <Result Value>
72%

$$$$
>  <Molecule>
CC(C)(C)c1cc(C=CC(=O)OC2N=C(c3ccccc3Cl)c3cc(Cl)ccc3NC2=O)cc(C(C)(C)C)c1O (stereo not shown)

>  <Result Value>
81%

$$$$
